target: human orexin-2 receptor (Homo sapiens (Human), UniProt O43614); test: In vitro assay: intracellular calcium measurements (FLIPR), antagonistic activity; conditions: CHO cells expressing human orexin-2 receptor, orexin-A agonist, geometric mean, read-out: IC50 Ox2
Sequence (O43614 whole entry): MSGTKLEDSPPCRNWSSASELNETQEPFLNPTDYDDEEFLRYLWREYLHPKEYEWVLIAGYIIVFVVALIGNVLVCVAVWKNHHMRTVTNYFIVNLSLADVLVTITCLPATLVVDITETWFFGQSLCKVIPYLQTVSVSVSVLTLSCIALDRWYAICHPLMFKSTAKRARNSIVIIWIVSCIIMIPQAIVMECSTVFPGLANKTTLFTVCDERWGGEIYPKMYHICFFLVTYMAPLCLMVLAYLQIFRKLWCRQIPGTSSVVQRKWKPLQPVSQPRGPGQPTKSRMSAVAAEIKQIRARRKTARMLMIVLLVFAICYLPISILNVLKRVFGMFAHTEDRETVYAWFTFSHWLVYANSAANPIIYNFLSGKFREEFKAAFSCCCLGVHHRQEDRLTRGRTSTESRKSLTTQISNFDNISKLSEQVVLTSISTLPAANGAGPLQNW
OBSERVABLE: IC50 (nM)
Value expressed in nM; do not type the unit.

INSERT INTO measurements (smiles_repr, tested_on, observable, quantitative_readout) VALUES
  ('Cc1ccc(-n2nccn2)c(C(=O)N2CCC[C@@]2(C)c2nc3cc(F)c(Br)cc3[nH]2)c1', 'human orexin-2 receptor (Homo sapiens (Human), UniProt O43614)', 'IC50', 80),
  ('COc1cc2nc([C@@H]3[C@@H](C)CCN3C(=O)c3ccccc3-n3cccn3)[nH]c2cc1OC', 'human orexin-2 receptor (Homo sapiens (Human), UniProt O43614)', 'IC50', 2620);

Provide IC50, tested on human orexin-2 receptor (Homo sapiens (Human), UniProt O43614), for Cc1nc(C(=O)N2CC[C@H](C)[C@H]2c2nc3cc(Cl)c(C)cc3[nH]2)c(-c2cccc(Cl)c2)s1 .
670

----------
target: human orexin-1 receptor (Homo sapiens (Human), UniProt O43613); experiment: In vitro assay: intracellular calcium measurements (FLIPR), antagonistic activity; settings: CHO cells expressing human orexin-1 receptor, orexin-A agonist, geometric mean, read-out: IC50 Ox1
Sequence (O43613 whole entry): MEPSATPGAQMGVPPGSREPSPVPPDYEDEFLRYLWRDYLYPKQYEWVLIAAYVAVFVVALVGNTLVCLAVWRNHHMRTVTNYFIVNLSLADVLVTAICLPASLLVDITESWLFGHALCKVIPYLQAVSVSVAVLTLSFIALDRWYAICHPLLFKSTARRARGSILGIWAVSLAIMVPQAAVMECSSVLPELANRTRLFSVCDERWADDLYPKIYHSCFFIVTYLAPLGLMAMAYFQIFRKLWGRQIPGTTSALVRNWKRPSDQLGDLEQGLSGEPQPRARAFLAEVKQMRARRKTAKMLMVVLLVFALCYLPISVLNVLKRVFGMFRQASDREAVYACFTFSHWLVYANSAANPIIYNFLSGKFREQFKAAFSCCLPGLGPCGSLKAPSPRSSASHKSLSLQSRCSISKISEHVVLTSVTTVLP
# pIC50 per entry
pIC50 here is simply -log10 of the concentration when that concentration is written in mol/L.

INSERT INTO assay_data (compound, observable, quantitative_readout) VALUES
  ('Cc1ccc(-n2nccn2)c(C(=O)N2CC[C@H](C)[C@H]2c2nc3c(Cl)cccc3[nH]2)c1', 'pIC50', 7.15),
  ('Cc1cccc2[nH]c([C@]3(C)CCCN3C(=O)c3ccccc3-n3nccn3)nc12', 'pIC50', 6.97);

We now examine a further compound.
Give the value of pIC50 reported for the following: Cc1nc(C(=O)N2CCCC2c2nc3cc(C(C)(C)C)ccc3[nH]2)c(-c2ccccc2)s1 (stereo not drawn)
6.92

----------
molecular target: human orexin-2 receptor (Homo sapiens (Human), UniProt O43614); test: In vitro assay: intracellular calcium measurements (FLIPR), antagonistic activity; settings: CHO cells expressing human orexin-2 receptor, orexin-A agonist, geometric mean, read-out: IC50 Ox2
OBSERVABLE: IC50 (nM)
Report only the number, with the unit nM understood.

Illustrative cases are given below, each with its answer.
INSERT INTO results (smiles_repr, unit_abbrev, quantitative_readout) VALUES
  ('CSc1cccc2nc([C@@H]3CCCN3C(=O)c3c(C)cccc3-n3nccn3)[nH]c12', 'nM', 20),
  ('C=C1C[C@@H](c2nc3c(C)cccc3[nH]2)N(C(=O)c2nc(C)sc2-c2ccccc2)C1', 'nM', 9);

Now turn to the next molecule.
GET IC50 where system = human orexin-2 receptor (Homo sapiens (Human), UniProt O43614) and item = Cc1ccc(C(=O)N2CCC[C@@]2(C)c2nc3cc(OC(F)(F)F)ccc3[nH]2)c(-n2nccn2)c1
91

----------
molecular target: human orexin-1 receptor (Homo sapiens (Human)); experiment: In vitro assay: intracellular calcium measurements (FLIPR), antagonistic activity; conditions: CHO cells expressing human orexin-1 receptor, orexin-A agonist, geometric mean, read-out: IC50 Ox1
OBSERVABLE: IC50

INSERT INTO assay_data (molecule, observable, result) VALUES
  ('Cc1ccc2[nH]c([C@@H]3[C@@H](C)CCN3C(=O)c3nc(C)sc3-c3cccc(Cl)c3)nc2c1 [Ex. 4.3]', 'IC50', '8 nM'),
  ('C=C1C[C@@H](c2nc3cc(OC)ccc3[nH]2)N(C(=O)c2nc(C3CC3)sc2-c2cccc(C)c2)C1 [Ex. 6.26]', 'IC50', '26 nM');

Next up:
Specify the recorded IC50 for C=C1C[C@@H](c2nc3cc(OC)ccc3[nH]2)N(C(=O)c2nccnc2-c2ccc(C)cc2)C1 [Ex. 6.4] , system: human orexin-1 receptor (Homo sapiens (Human)).
2510 nM

----------
Target: human orexin-2 receptor (Homo sapiens (Human), UniProt O43614)
Experiment: In vitro assay: intracellular calcium measurements (FLIPR), antagonistic activity
Conditions: CHO cells expressing human orexin-2 receptor, orexin-A agonist, geometric mean, read-out: IC50 Ox2
Experimental: In Vitro Assay: Intracellular Calcium Measurements: […] Within the Fluorescent Imaging Plate Reader (FLIPR Tetra, Molecular Devices), antagonists are added to the plate in a volume of 10 μl/well, incubated for 120 min and finally 10 μl/well of agonist is added. […] The calculated IC50 values may fluctuate depending on the daily cellular assay performance. […]
OBSERVABLE: IC50

Here is how some compounds turned out for IC50.
INSERT INTO measurements (compound, tested_on, result) VALUES
  ('Cc1nc(C(=O)N2CC[C@H](C)[C@H]2c2nc3c(Cl)cccc3[nH]2)c(-c2ccc(F)c(F)c2)s1', 'human orexin-2 receptor (Homo sapiens (Human), UniProt O43614)', '2380 nM'),
  ('C=C1C[C@@H](c2nc3cc(C)c(C)cc3[nH]2)N(C(=O)c2c(-n3nccn3)ccc(C)c2F)C1', 'human orexin-2 receptor (Homo sapiens (Human), UniProt O43614)', '12 nM');

Return the recorded IC50 value; entry: C=C1C[C@@H](c2nc3ccc(Cl)c(C)c3[nH]2)N(C(=O)c2cc(C)c(C)cc2-n2nccn2)C1
0.6 nM

Specify IC50 for C=C1C[C@@H](c2nc3cc(Cl)c(C(F)(F)F)cc3[nH]2)N(C(=O)c2cc(C(F)(F)F)ccc2-n2nccn2)C1 and stop.
73 nM

Identify IC50 associated with the compound C=C1CN(C(=O)c2nc(C)sc2-c2cccc(C)c2)C(C)(c2nc3cc(OC)ccc3[nH]2)C1 (stereo not drawn)
32 nM

Answer with reported IC50 of COc1ccc(-n2nccn2)c(C(=O)N2CC[C@H](C)[C@H]2c2nc3cc(C)c(C)cc3[nH]2)c1
58 nM

----------
biological target: human orexin-2 receptor (Homo sapiens (Human), UniProt O43614); test: In vitro assay: intracellular calcium measurements (FLIPR), antagonistic activity; conditions: CHO cells expressing human orexin-2 receptor, orexin-A agonist, geometric mean, read-out: IC50 Ox2
Could you mark each record 1 if its IC50 falls strictly under 60 nM, and 0 if it equals or exceeds it?

Here's what some known entries look like.
INSERT INTO measurements (molecule, category_label) VALUES
  ('CSc1ccc2nc([C@@H]3CCCN3C(=O)c3nc(C)sc3-c3cccc(Cl)c3)[nH]c2c1 [Ex. 1.43]', 1),
  ('COc1ccc(-c2ccc(C)cc2)c(C(=O)N2CCC[C@@]2(C)c2nc3ccc(Cl)c(C)c3[nH]2)c1F [Ex. 5.302]', 1),
  ('Cc1ccc(-n2nccn2)c(C(=O)N2CCC[C@@]2(C)c2nc3cc(Cl)ccc3[nH]2)c1 [Ex. 5.11]', 0);

is_below(IC50, 60 nM) for Cc1ccc(-c2cccc(F)c2)c(C(=O)N2CCC[C@@]2(C)c2nc3cc(C)c(C)cc3n2CC2CC2)c1 [Ex. 7.34] ?
0

----------
target: human orexin-1 receptor (Homo sapiens (Human)); assay: In vitro assay: intracellular calcium measurements (FLIPR), antagonistic activity; details: CHO cells expressing human orexin-1 receptor, orexin-A agonist, geometric mean, read-out: IC50 Ox1
OBSERVABLE: pIC50
Scale: negative log10 of molar concentration, which is what pIC50 denotes.

Below are worked cases with known answers.
INSERT INTO measurements (compound, quantitative_readout) VALUES
  ('C=C1C[C@@H](c2nc3cc(C)c(C)cc3[nH]2)N(C(=O)c2cc(F)ccc2-n2nccn2)C1', 7.32),
  ('COc1ccccc1-c1sc(C)nc1C(=O)N1CC[C@H](C)[C@H]1c1nc2c(C(F)(F)F)cccc2[nH]1', 7.85),
  ('Cc1ccc(-c2ccc(C)cc2C(=O)N2CCC[C@@]2(C)c2nc3cc(C)c(C)cc3[nH]2)cc1', 7.77),
  ('CCc1ccc(-c2sc(C)nc2C(=O)N2CCC[C@H]2c2nc3cccc(SC)c3[nH]2)cc1', 7.43),
  ('Cc1ccc(-n2nccn2)c(C(=O)N2CCC[C@@]2(C)c2nc3c(F)c(F)ccc3[nH]2)n1', 6.83),
  ('CO[C@H]1CN(C(=O)c2cc(C(F)(F)F)ccc2-n2nccn2)C(C)(c2nc3c(C)c(Cl)ccc3[nH]2)C1 (some centres unmarked)', 6.63);

Please tell me the measured pIC50 for Cc1nc(C(=O)N2CCCC2c2nc3c(F)cccc3[nH]2)c(-c2cccc(Cl)c2)s1 (centres unmarked) ; system: human orexin-1 receptor (Homo sapiens (Human)).
6.18

Print human orexin-1 receptor (Homo sapiens (Human)) pIC50 for COc1cc2nc([C@@H]3[C@@H](C)CCN3C(=O)c3c(F)cccc3-n3nccn3)[nH]c2cc1OC .
6.44

Write down the reported pIC50 (system: human orexin-1 receptor (Homo sapiens (Human))) of CSc1cccc2nc([C@@H]3CCCN3C(=O)c3nc(C)sc3-c3ccc(C)cc3)[nH]c12
7.70

Give pIC50 only, for COc1cc2nc([C@]3(C)CCCN3C(=O)c3c(F)cccc3-n3nccn3)[nH]c2cc1OC , using human orexin-1 receptor (Homo sapiens (Human)) data.
6.06

Fill in: pIC50 on human orexin-1 receptor (Homo sapiens (Human)), entry C=C1C[C@@H](c2nc3cc(C)c(C)cc3[nH]2)N(C(=O)c2c(-n3nccn3)ccc(C)c2F)C1
7.23

Provide human orexin-1 receptor (Homo sapiens (Human)) pIC50 reading for COc1cc2nc([C@]3(C)CCCN3C(=O)c3ccccc3-c3cccc(C)c3)[nH]c2cc1OC .
6.69

Retrieve pIC50 on human orexin-1 receptor (Homo sapiens (Human)); query C[C@@]1(c2nc3ccc(C(F)(F)F)cc3[nH]2)CCCN1C(=O)c1nc(-c2ccccc2F)sc1-c1ccc(F)cc1
7.41

Answer with pIC50 of Cc1ccc(-n2nccn2)c(C(=O)N2CC[C@H](C)[C@H]2c2nc3cc(Cl)c(C)cc3[nH]2)c1 measured for human orexin-1 receptor (Homo sapiens (Human)).
8.15
